Reported melting point values are given for each entry in this list.

{"MOLECULE": "CCCCCCCCCCC/C=C\\c1ccc(C=CC(=O)OC)cc1", "melting point": "60 to 62 °C"}
{"MOLECULE": "NC(=O)CCc1c[nH]c2ccccc12", "melting point": "140 °C"}
{"MOLECULE": "COC(=O)/C=C/c1c(-c2ccc(F)cc2)c2ccccc2n1C(C)C", "melting point": "155 to 157 °C"}
{"MOLECULE": "CCSc1cc(C)nc(SCC)c1NC(=O)CN1CCN(CCSc2nc3cccc(C(F)(F)F)c3o2)CC1", "melting point": "107 to 108 °C"}
{"MOLECULE": "CC1CN(Cc2ccccc2)CCC12CC(c1ccccc1)=NO2 (stereo not given)", "melting point": "101 to 108 °C"}
{"MOLECULE": "CC1=Cc2cccc(S(N)(=O)=O)c2OS1(=O)=O", "melting point": "204 to 205 °C"}
{"MOLECULE": "CCC(=O)Nc1c([N+](=O)[O-])cnn1-c1nc(Cl)c(C(F)(F)F)cc1Cl", "melting point": "148 to 154 °C"}
{"MOLECULE": "Cc1cccc(Nc2nc(-c3cn[nH]c3)c(F)s2)n1", "melting point": "204 °C"}
{"MOLECULE": "CCCn1c(=O)c2c(nc(/C=C/c3ccc4c(c3)OCO4)n2C)n(CCC)c1=O", "melting point": "152 to 155 °C"}
{"MOLECULE": "CC(=O)NC(NC(=O)C(F)(F)F)C(=O)NCc1ccccc1 (stereo not given)", "melting point": "228 to 230 °C"}
{"MOLECULE": "Cn1nc(-c2ccccc2)cc1C(=O)Nc1ccc(OCC(C)(C)C)c(C#N)c1", "melting point": "223 to 224 °C"}
{"MOLECULE": "O=C(Nc1ccc(Cl)cn1)c1nc(-c2ccccc2)c2ccccc2c1O", "melting point": "249 to 251 °C"}
{"MOLECULE": "Cc1cccc(C2=C(c3ccc(S(C)(=O)=O)cc3)CN(C3CC3)C2=O)c1", "melting point": "136 to 137 °C"}
{"MOLECULE": "O=C1NCCCc2cc(OCCCN3CCN(Cc4ccc5ccccc5n4)CC3)ccc21", "melting point": "161 to 162 °C"}
{"MOLECULE": "Cc1ccc(C2=NNC(=O)CC2)cc1O", "melting point": "216 to 218 °C"}
{"MOLECULE": "COC(=O)[C@H](C)N(C(=O)[C@H](CC(C)C)NC(=O)OCc1ccccc1)c1ccc(-c2ccccc2)cc1", "melting point": "126 to 127 °C"}
{"MOLECULE": "FC(F)(F)C(F)(F)c1nc(-c2ccc(OCCCn3ccnc3)cc2)no1", "melting point": "60.5 to 61.5 °C"}
{"MOLECULE": "N#Cc1ccc(NCCc2nc3cc(Cl)ccc3c3nn(-c4ccccc4)cc23)nc1", "melting point": "207 to 208 °C"}
{"MOLECULE": "COc1cc2c(cc1OC)SCCC(C(=O)N1CCN(C(=O)c3cc(OC)c(OC)c(OC)c3)CC1)=C2", "melting point": "113 °C"}
{"MOLECULE": "CNC(=O)c1ccc(F)c2c1CC(N(CCc1c[nH]c3ccc(F)cc13)CC1CC1)CO2 (stereo not given)", "melting point": "138 °C"}
